Parameter: 293T-LentiX WEE1-ePL Degradation 4 hr (Ymin). Scope: all listed entries.
# systemUnderTest: WEE1 (Homo sapiens, UniProt P30291+Q96SW2)
# Construct: C-terminal ePL-tagged (DiscoverX, Fremont, CA) full-length WEE1 expression construct; expressed in transfected cells; host or cells: LentiX-HEK293T (Invitrogen), lentiviral transduction; co-expressing GSPT1-GN (G576N, lacking the first 158 amino acids)
# experimentDescription: WEE1-ePL degradation assay (LentiX-WEE1-ePL-GSPT1-ND cells, InCELL Hunter luminescence, 4 h)
# Type: cell-based
# condition: 293T-LentiX WEE1-ePL cells, lower limit of the fit (0 = luciferase inhibitor, Ymax = DMSO control)
In your answer, state the number alone without any accompanying words.

{"compound": "O=C1CCC(N2Cc3cc(O[C@H]4CCN(Cc5ccc6nc(C(F)(F)F)ncc6c5)C4)ccc3C2=O)C(=O)N1 (stereo partly shown)", "recordedValue": 29.67}
{"compound": "CN(C)C(=O)c1ccc2cc(CN3CC[C@H](Oc4ccc5c(c4)CN(C4CCC(=O)NC4=O)C5=O)C3)ccc2n1 (stereo partly shown)", "recordedValue": 29.42}
{"compound": "[2H]c1ccc2cc(CN3CCC(Oc4ccc5c(c4)CN(C4CCC(=O)NC4=O)C5=O)C3)ccc2n1 (stereo not shown)", "recordedValue": 29.5}

Next:
What is its 293T-LentiX WEE1-ePL Degradation 4 hr (Ymin) for WEE1 (Homo sapiens, UniProt P30291+Q96SW2)? Entry: CO[C@H]1CC[C@H](Oc2ccc3cc(CN4CC[C@H](Oc5ccc6c(c5)CN(C5CCC(=O)NC5=O)C6=O)C4)ccc3n2)CC1 (stereo partly shown)
30.67

----------
# systemUnderTest: WEE1 (Homo sapiens, UniProt P30291+Q96SW2)
# Construct: C-terminal ePL-tagged (DiscoverX, Fremont, CA) full-length WEE1 expression construct; expressed in transfected cells; host or cells: LentiX-HEK293T (Invitrogen), lentiviral transduction; co-expressing GSPT1-GN (G576N, lacking the first 158 amino acids)
# experimentDescription: WEE1-ePL degradation assay (LentiX-WEE1-ePL-GSPT1-ND cells, InCELL Hunter luminescence, 4 h)
# Format: cell-based
# condition: 293T-LentiX WEE1-ePL cells, lower limit of the fit (0 = luciferase inhibitor, Ymax = DMSO control)
Parameter: 293T-LentiX WEE1-ePL Degradation 4 hr (Ymin). Scope: all listed entries.
In your answer, state the number alone without any accompanying words.

Sample records with 293T-LentiX WEE1-ePL Degradation 4 hr (Ymin):
{"compound": "COC(C)(C)c1ccc2cc(CN3CC[C@H](Oc4ccc5c(c4)CN(C4CCC(=O)NC4=O)C5=O)C3)ccc2n1 (some centres unmarked)", "recordedValue": 32.5}
{"compound": "O=C1CCC(N2Cc3cc(O[C@@H]4CCN(Cc5cnc6ccccc6c5)C4)ccc3C2=O)C(=O)N1 (stereo in doubt)", "recordedValue": 26.82}
{"compound": "Cc1nc2ccc(CN3CC[C@H](Oc4ccc5c(c4)CN(C4CCC(=O)NC4=O)C5=O)C3)cc2cc1F (some centres unmarked)", "recordedValue": 33.29}
{"compound": "O=C1CCC(N2Cc3cc(O[C@H]4CCN(Cc5ccc6nc([C@H]7CC[C@@H](O)CC7)ccc6c5)C4)ccc3C2=O)C(=O)N1 (some centres unmarked)", "recordedValue": 33}
{"compound": "Cc1ccnc(CN2CC[C@H](Oc3ccc4c(c3)CN(C3CCC(=O)NC3=O)C4=O)C2)c1 (some centres unmarked)", "recordedValue": 38.55}
{"compound": "Cc1ccc2c(F)c(CN3CC[C@H](Oc4ccc5c(c4)CN(C4CCC(=O)NC4=O)C5=O)C3)ccc2n1 (some centres unmarked)", "recordedValue": 28.365}
{"compound": "COc1cncc(CN2CC[C@H](Oc3ccc4c(c3)CN(C3CCC(=O)NC3=O)C4=O)C2)c1C (some centres unmarked)", "recordedValue": 61}
{"compound": "N#Cc1nc2ccc(CN3CC[C@H](Oc4ccc5c(c4)CN(C4CCC(=O)NC4=O)C5=O)C3)cc2cc1F (some centres unmarked)", "recordedValue": 35}

What is its 293T-LentiX WEE1-ePL Degradation 4 hr (Ymin) for WEE1 (Homo sapiens, UniProt P30291+Q96SW2)? Entry: O=C1CCC(N2Cc3cc(O[C@H]4CCN(Cc5ccc6nc(N7CCOCC7)ncc6c5)C4)ccc3C2=O)C(=O)N1 (some centres unmarked)
31.33

What is its 293T-LentiX WEE1-ePL Degradation 4 hr (Ymin) for WEE1 (Homo sapiens, UniProt P30291+Q96SW2)? Entry: CNc1cnc2ccc(CN3CC[C@H](Oc4ccc5c(c4)CN(C4CCC(=O)NC4=O)C5=O)C3)cc2c1 (some centres unmarked)
34

What is its 293T-LentiX WEE1-ePL Degradation 4 hr (Ymin) for WEE1 (Homo sapiens, UniProt P30291+Q96SW2)? Entry: O=C1CCC(N2Cc3cc(O[C@H]4CCN(Cc5cc6ccc(N7CCOCC7)cc6cn5)C4)ccc3C2=O)C(=O)N1 (some centres unmarked)
36

----------
# systemUnderTest: WEE1 (Homo sapiens, UniProt P30291+Q96SW2)
# Construct: C-terminal ePL-tagged (DiscoverX, Fremont, CA) full-length WEE1 expression construct; expressed in transfected cells; host or cells: LentiX-HEK293T (Invitrogen), lentiviral transduction; co-expressing GSPT1-GN (G576N, lacking the first 158 amino acids)
# experimentDescription: WEE1-ePL degradation assay (LentiX-WEE1-ePL-GSPT1-ND cells, InCELL Hunter luminescence, 4 h)
# Assay type: cell-based
# condition: 293T-LentiX WEE1-ePL cells, lower limit of the fit (0 = luciferase inhibitor, Ymax = DMSO control)
parameterMeasured: 293T-LentiX WEE1-ePL Degradation 4 hr (Ymin)
In your answer, state the number alone without any accompanying words.

Sample records with 293T-LentiX WEE1-ePL Degradation 4 hr (Ymin):
{"compound": "O=C1CC[C@H](N2Cc3cc(O[C@H]4CCN(Cc5ccc6nc([C@@H]7CCOC7)ncc6c5)C4)ccc3C2=O)C(=O)N1", "recordedValue": 33}
{"compound": "O=C1CCC(N2Cc3cc(O[C@H]4CCN(Cc5ccc6nc(C7CCOCC7)ccc6c5F)C4)ccc3C2=O)C(=O)N1 (stereo partly drawn)", "recordedValue": 32}

What is its 293T-LentiX WEE1-ePL Degradation 4 hr (Ymin) for WEE1 (Homo sapiens, UniProt P30291+Q96SW2)? Entry: O=C1CCC(N2Cc3cc(O[C@H]4CCN(Cc5ccc6nc(N7CC[C@@]78CCOC8)ncc6c5)C4)ccc3C2=O)C(=O)N1 (stereo partly drawn)
34.39

----------
# systemUnderTest: WEE1 (Homo sapiens, UniProt P30291+Q96SW2)
# Construct: C-terminal ePL-tagged (DiscoverX, Fremont, CA) full-length WEE1 expression construct; expressed in transfected cells; host or cells: LentiX-HEK293T (Invitrogen), lentiviral transduction; co-expressing GSPT1-GN (G576N, lacking the first 158 amino acids)
# experimentDescription: WEE1-ePL degradation assay (LentiX-WEE1-ePL-GSPT1-ND cells, InCELL Hunter luminescence, 4 h)
# Type: cell-based
# condition: 293T-LentiX WEE1-ePL cells, lower limit of the fit (Ymin=0 luciferase inhibitor, Ymax DMSO control)
Parameter: 293T-LentiX WEE1-ePL Degradation 4 hr (Ymin). Scope: all listed entries.
In your answer, state the number alone without any accompanying words.

Sample records with 293T-LentiX WEE1-ePL Degradation 4 hr (Ymin):
{"structureString": "O=C1CC[C@H](N2Cc3cc(O[C@H]4CCN(Cc5cc(Cl)c6nc(N7CCOCC7)ncc6c5)C4)ccc3C2=O)C(=O)N1", "recordedValue": 38.34}
{"structureString": "CC(=O)N1CCN(c2ncc3cc(CN4CC[C@H](Oc5ccc6c(c5)CN([C@H]5CCC(=O)NC5=O)C6=O)C4)ccc3n2)CC1", "recordedValue": 39.39}

Next:
So what does the record say about 293T-LentiX WEE1-ePL Degradation 4 hr (Ymin) for "O=C1CC[C@H](N2Cc3cc(O[C@@H]4CN(Cc5cc6ccc(C7CCOCC7)cc6cn5)CC4(F)F)ccc3C2=O)C(=O)N1" ?
26.77

----------
# systemUnderTest: WEE1 (Homo sapiens, UniProt P30291+Q96SW2)
# Construct: C-terminal ePL-tagged (DiscoverX, Fremont, CA) full-length WEE1 expression construct; expressed in transfected cells; host or cells: LentiX-HEK293T (Invitrogen), lentiviral transduction; co-expressing GSPT1-GN (G576N, lacking the first 158 amino acids)
# experimentDescription: WEE1-ePL degradation assay (LentiX-WEE1-ePL-GSPT1-ND cells, InCELL Hunter luminescence, 4 h)
# Assay type: cell-based
# condition: 293T-LentiX WEE1-ePL cells, read-out: 293T-LentiX WEE1-ePL Degradation 4 hr (EC50)
parameterMeasured: log10 DC50 (log10 of the value in nM)
Lab note - DC50 converted to log10 from values in nM.

{"molecule": "O=C1CCC(N2Cc3cc(O[C@H]4CCN(Cc5cc6ccccc6nn5)C4)ccc3C2=O)C(=O)N1 (stereo partly shown)", "log10 DC50": 1.10}
{"molecule": "O=C1CCC(N2Cc3cc(O[C@H]4CCN(Cc5ccc6nc(N7C[C@@H]8C[C@H]7CO8)ncc6c5)C4)ccc3C2=O)C(=O)N1 (stereo partly shown)", "log10 DC50": 1.09}
{"molecule": "O=C1CCC(N2Cc3cc(O[C@@H]4CN(Cc5ccc6nc(C7CCOCC7)ccc6c5)C[C@H]4C(F)(F)F)ccc3C2=O)C(=O)N1 (stereo partly shown)", "log10 DC50": 1.12}
{"molecule": "O=C1CCC(N2Cc3cc(O[C@H]4CCN(Cc5cccc6ncncc56)C4)ccc3C2=O)C(=O)N1 (stereo partly shown)", "log10 DC50": 2.61}
{"molecule": "O=C1CCC(N2Cc3cc(O[C@H]4CCN(Cc5ccc6nc([C@H]7CC[C@H](O)C7)ccc6c5)C4)ccc3C2=O)C(=O)N1 (stereo partly shown)", "log10 DC50": 0.43}
{"molecule": "CO[C@@H]1CC[C@@H](c2ccc3cc(CN4CC[C@H](Oc5ccc6c(c5)CN(C5CCC(=O)NC5=O)C6=O)C4)ccc3n2)C1 (stereo partly shown)", "log10 DC50": 0.68}

Next:
So what does the record say about log10 DC50 for "CC(=O)N1CCC(c2ccc3cc(CN4CC[C@H](Oc5ccc6c(c5)CN([C@H]5CCC(=O)NC5=O)C6=O)C4)ccc3n2)CC1" ?
1.00
